Value source: the supplement of paper PMC12042874

# assay_info: amyloid nucleation score (Sup35N fusion, yeast selection) (log enrichment); library NNK1; higher = more nucleation; inactive = no reads after selection;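 also: zero at mode of non-aggregating sequences after 7 days selection at 30°C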
Reported amyloid nucleation score is given for each of the following substances.
No unit in the answer, only the number.

Bench note: what amyloid nucleation score did IECLLDRILDTLYVRLNFIG show? 0.616

Bench note: what amyloid nucleation score did FGLRFAHAHLINWPWMLSGS show? 0.047

Bench note: what amyloid nucleation score did KSQCWRSGLVLFNA show? -0.243

Bench note: what amyloid nucleation score did DCSFRCMYAIMLYVLCLSHN show? 0.422

Bench note: what amyloid nucleation score did RLSLAESAPLVNFVSTALGK show? -0.168

---
Bench note: what amyloid nucleation score did QPLSLCLVFDCTNISFSFQA show? 8.59

Bench note: what amyloid nucleation score did QVRGTEVPVSIAVGLGTSRL show? 1.05

Bench note: what amyloid nucleation score did SSNYADNEGSAHQFGNRRES show? -0.108

Bench note: what amyloid nucleation score did DSADMLILILYAAVLLYTIF show? -0.278

----------
Reported amyloid nucleation score is given for each of the following substances.
# assay_info: amyloid nucleation score (Sup35N fusion, yeast selection) (log enrichment); library NNK2; higher = more nucleation; inactive = no reads after selection
No unit in the answer, only the number.

Please review the entries below; each comes with its answer.
Bench note: what amyloid nucleation score did TNHYSSVRS show? -0.195

Bench note: what amyloid nucleation score did ASWKFMFNCSKISRRPNTIT show? 0.148

Bench note: what amyloid nucleation score did YITYSREAETCIFVKGDFS show? -0.153

Bench note: what amyloid nucleation score did FSSRNFNLCRKTYWWCDSYQ show? -0.066

Bench note: what amyloid nucleation score did TGCMSFSWPWTLLVSPIQLS show? -0.651

---
Bench note: what amyloid nucleation score did DFLWTFVGNFLE show? -1.43

Bench note: what amyloid nucleation score did NDWFCVVY show? -1.48

Bench note: what amyloid nucleation score did VWLCHSVNHIAISNE show? 1.12

Bench note: what amyloid nucleation score did WYSQVPERALRQWGFFSLGG show? 0.397

Bench note: what amyloid nucleation score did SFCKCLVVALVDVWNRCLPW show? 4.68

----------
# assay_info: amyloid nucleation score (Sup35N fusion, yeast selection) (log enrichment); library NNK2; higher = more nucleation; inactive = no reads after selection
Reported amyloid nucleation score is given for each of the following substances.
No unit in the answer, only the number.

Please review the entries below; each comes with its answer.
Bench note: what amyloid nucleation score did FSSWAFLMSRLCYHDSESHL show? 0.417

Bench note: what amyloid nucleation score did AVCWYNVQVRSSRNLYGQPK show? 0.221

Bench note: what amyloid nucleation score did LNVGPQGYMCGSPLYDHCG show? 2.73

---
Bench note: what amyloid nucleation score did YAPGVLLSSMNDMAEYKGGI show? -0.14

Bench note: what amyloid nucleation score did SDLVLKSLFDVVARRL show? -0.072

Bench note: what amyloid nucleation score did SVSETLWYDYIFKFVISVAN show? -1.03

Bench note: what amyloid nucleation score did RFGGSVYARGERL show? -0.159

Bench note: what amyloid nucleation score did KRCYCIKGVCNLNGISPKVK show? -0.468

Bench note: what amyloid nucleation score did TSISLLFWCVYSLASVGFSA show? -0.586

Bench note: what amyloid nucleation score did FPFLDGVVLSKEFYNLR show? -1

Bench note: what amyloid nucleation score did LKCHVLGVHCAL show? 0.205

Bench note: what amyloid nucleation score did NLYMPDS show? 0.395

Bench note: what amyloid nucleation score did NSVETLMNQRCWVCHTCCVK show? -0.472

----------
Reported amyloid nucleation score is given for each of the following substances.
# assay_info: amyloid nucleation score (Sup35N fusion, yeast selection) (log enrichment); library NNK1; higher = more nucleation; inactive = no reads after selection
No unit in the answer, only the number.

Please review the entries below; each comes with its answer.
Bench note: what amyloid nucleation score did YFIARREQFWIMLPGELALE show? -0.756

Bench note: what amyloid nucleation score did AESWHVGKS show? -0.593

Bench note: what amyloid nucleation score did NPLVFRN show? -0.122

Bench note: what amyloid nucleation score did SSLKVLIPYSCYHFV show? 2.76

---
Bench note: what amyloid nucleation score did QPPKHMTMYVYVDTHEAVLS show? -0.133

----------
Reported amyloid nucleation score is given for each of the following sequences.
# assay_info: amyloid nucleation score (Sup35N fusion, yeast selection) (log enrichment); library NNK1; higher = more nucleation; inactive = no reads after selection
No unit in the answer, only the number.

Bench note: what amyloid nucleation score did NRNTRLMWNDTVWGIRAARY show? -0.279

---
Bench note: what amyloid nucleation score did VVTRWLASNNDGGIESLLIK show? 0.132

Bench note: what amyloid nucleation score did VFRFRGCF show? 1.62

Bench note: what amyloid nucleation score did GSWNALRLRCVNVVRTGVMN show? -0.496

Bench note: what amyloid nucleation score did IGTLFTSNSYFWYLVVG show? 2.51

Bench note: what amyloid nucleation score did WFVNWWEYVL show? 0.042

Bench note: what amyloid nucleation score did LWVSNSSIRLDRNINQTLAT show? 0.019

----------
# assay_info: amyloid nucleation score (Sup35N fusion, yeast selection) (log enrichment); library NNK3; higher = more nucleation; inactive = no reads after selection
observation_type: amyloid nucleation score

Bench note: what amyloid nucleation score did NHMLCCTCDFHYCVRGWKSF show? 0.64

Bench note: what amyloid nucleation score did DFGHVIQSSWNSMNSAQSVA show? inactive

Bench note: what amyloid nucleation score did RRNWSCMQTLSLANVVRVSA show? inactive

Bench note: what amyloid nucleation score did SKFFQQPWL show? inactive

Bench note: what amyloid nucleation score did MRNCEIISWKKAQVLSYNSS show? inactive

Bench note: what amyloid nucleation score did ATIIPICSHLIDHSVSLDQG show? inactive

Bench note: what amyloid nucleation score did EPITASYMRILNCACVAYCG show? inactive

Bench note: what amyloid nucleation score did CIRIYATFFKLRQSYNGTNG show? 1.03

---
Bench note: what amyloid nucleation score did EQVFRYIL show? inactive

Bench note: what amyloid nucleation score did YSNLLAYWIQISKWIATGRC show? inactive

Bench note: what amyloid nucleation score did LNSDIVVNLNIAWSYCIV show? 1.39

Bench note: what amyloid nucleation score did HKLAKTNRSSIIVCGNRVLL show? 0.916

Bench note: what amyloid nucleation score did RDSFVFYVY show? inactive

Bench note: what amyloid nucleation score did FLCQFLRFFCIN show? 1.04

Bench note: what amyloid nucleation score did FFWLMDAPHPRRHVDERQLI show? inactive

Bench note: what amyloid nucleation score did AHGTMGGNYGRNVQLDDRLN show? inactive

Bench note: what amyloid nucleation score did ANSNRRECQHNS show? 1.06

----------
Reported amyloid nucleation score is given for each of the following sequences.
# assay_info: amyloid nucleation score (Sup35N fusion, yeast selection) (log enrichment); library NNK1; higher = more nucleation; inactive = no reads after selection
No unit in the answer, only the number.

Please review the entries below; each comes with its answer.
Bench note: what amyloid nucleation score did LLQSGGLVIRVHCSMFTVGA show? -0.889

Bench note: what amyloid nucleation score did RGRPLLGRMRFSSAGRAAFW show? -0.418

Bench note: what amyloid nucleation score did NRHVSRRRHSEISLVRKGGA show? -0.313

---
Bench note: what amyloid nucleation score did SLRMLCRLPSRKDRSWTDML show? 0.6

Bench note: what amyloid nucleation score did SVYKVPVVYGINTRFYFSES show? 1.18

Bench note: what amyloid nucleation score did ASRIHYWWS show? 0.787

Bench note: what amyloid nucleation score did GKHSLSPVYLWYGNNY show? 0.707

Bench note: what amyloid nucleation score did NLVVQCADGVILSFWDHMVG show? 2.43

----------
# assay_info: amyloid nucleation score (Sup35N fusion, yeast selection) (log enrichment); library NNK3; higher = more nucleation; inactive = no reads after selection
observation_type: amyloid nucleation score

Bench note: what amyloid nucleation score did LLPDRFANPGETWVLNYKLM show? inactive

Bench note: what amyloid nucleation score did SLKLRCLLGTSKVVMVDLFV show? inactive

Bench note: what amyloid nucleation score did AVTDTNLLLFDVGYESLVHS show? inactive

Bench note: what amyloid nucleation score did TPNRGDFWITCSGGVGVWYG show? inactive

---
Bench note: what amyloid nucleation score did VSGQKVSCMDE show? inactive

Bench note: what amyloid nucleation score did YWNIFGVVSN show? inactive

Bench note: what amyloid nucleation score did NSRRCRNFASHRWPPEFRNS show? inactive

Bench note: what amyloid nucleation score did YYLGSADGDPDIKWSLGYRK show? inactive

Bench note: what amyloid nucleation score did PLQNKASVRVGCWAML show? inactive

Bench note: what amyloid nucleation score did AWFVEKLLCDLHSPSAVGAG show? -0.565

Bench note: what amyloid nucleation score did RNNVMYVGYEGI show? inactive

Bench note: what amyloid nucleation score did YARYMYYATNKINNWVVLKP show? inactive

Bench note: what amyloid nucleation score did KRHYMGTAQGCMGIVLKVFY show? inactive
